Origin of the recorded values: patent US20090011988A1

- system-tested: T1, human IGFBP-1 (human, UniProt P08833 26-259)
- T1 sequence (looked up): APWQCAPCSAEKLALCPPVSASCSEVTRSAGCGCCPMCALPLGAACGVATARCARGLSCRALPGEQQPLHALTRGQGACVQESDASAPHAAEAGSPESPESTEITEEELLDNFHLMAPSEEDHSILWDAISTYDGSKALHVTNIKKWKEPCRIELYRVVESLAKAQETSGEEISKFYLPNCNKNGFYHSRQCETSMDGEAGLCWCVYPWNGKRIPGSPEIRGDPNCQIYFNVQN
- method-description: competitive phage ELISA
pIC50: −log10 of the molar value.
parameter-measured: pIC50

[[record]]
binder = "IGF-1 D53A displayed on phage (ligand, not shown: large carriers; small tags and cut ends, ends and bridges not checked; also: displayed on M13 phage, fused to g3p fragment (249-406) via amber-codon residue, G1S-A70V background) SPETLCGAELVDALQFVCGDRGFYFNKPTGYGSSSRRAPQTGIVDECCFRSCALRRLEMYCAPLKPAKSV"
parameter_measured = "pIC50"
observed = 7.82

[[record]]
binder = "IGF-1 D45A displayed on phage (ligand, not shown: large carriers; small tags and cut ends, G1S-A70V background) SPETLCGAELVDALQFVCGDRGFYFNKPTGYGSSSRRAPQTGIVAECCFRSCDLRRLEMYCAPLKPAKSV"
parameter_measured = "pIC50"
observed = 8.33

[[record]]
binder = "IGF-1 E58A displayed on phage (ligand, not shown: large carriers; small tags and cut ends, ends and bridges not checked; also: displayed on M13 phage, fused to g3p fragment (249-406) via amber-codon residue, G1S-A70V background) SPETLCGAELVDALQFVCGDRGFYFNKPTGYGSSSRRAPQTGIVDECCFRSCDLRRLAMYCAPLKPAKSV"
parameter_measured = "pIC50"
observed = 7.92

[[record]]
binder = "IGF-1 S51A displayed on phage (ligand, not shown: large carriers; small tags and cut ends, not fully specified; ends and bridges not checked, G1S-A70V background) SPETLCGAELVDALQFVCGDRGFYFNKPTGYGSSSRRAPQTGIVDECCFRACDLRRLEMYCAPLKPAKSV"
parameter_measured = "pIC50"
observed = 7.87

[[record]]
binder = "IGF-1 M59A displayed on phage (ligand, not shown: large carriers; small tags and cut ends, not fully specified; ends and bridges not checked, G1S-A70V background) SPETLCGAELVDALQFVCGDRGFYFNKPTGYGSSSRRAPQTGIVDECCFRSCDLRRLEAYCAPLKPAKSV"
parameter_measured = "pIC50"
observed = 7.88

[[record]]
binder = "IGF-1 R55A displayed on phage (ligand, not shown: large carriers; small tags and cut ends, not fully specified; ends and bridges not checked, G1S-A70V background) SPETLCGAELVDALQFVCGDRGFYFNKPTGYGSSSRRAPQTGIVDECCFRSCDLARLEMYCAPLKPAKSV"
parameter_measured = "pIC50"
observed = 8.05

[[record]]
binder = "IGF-1 I43A displayed on phage (ligand, not shown: large carriers; small tags and cut ends, G1S-A70V background) SPETLCGAELVDALQFVCGDRGFYFNKPTGYGSSSRRAPQTGAVDECCFRSCDLRRLEMYCAPLKPAKSV"
parameter_measured = "pIC50"
observed = 7.50

[[record]]
binder = "IGF-1 L57A displayed on phage (ligand, not shown: large carriers; small tags and cut ends, not fully specified; ends and bridges not checked, G1S-A70V background) SPETLCGAELVDALQFVCGDRGFYFNKPTGYGSSSRRAPQTGIVDECCFRSCDLRRAEMYCAPLKPAKSV"
parameter_measured = "pIC50"
observed = 7.66

[[record]]
binder = "IGF-1 T41A displayed on phage (ligand, not shown: large carriers; small tags and cut ends, G1S-A70V background) SPETLCGAELVDALQFVCGDRGFYFNKPTGYGSSSRRAPQAGIVDECCFRSCDLRRLEMYCAPLKPAKSV"
parameter_measured = "pIC50"
observed = 7.86

[[record]]
binder = "IGF-1 V44A displayed on phage (ligand, not shown: large carriers; small tags and cut ends, G1S-A70V background) SPETLCGAELVDALQFVCGDRGFYFNKPTGYGSSSRRAPQTGIADECCFRSCDLRRLEMYCAPLKPAKSV"
parameter_measured = "pIC50"
observed = 7.73

[[record]]
binder = "IGF-1 R50A displayed on phage (ligand, not shown: large carriers; small tags and cut ends, G1S-A70V background) SPETLCGAELVDALQFVCGDRGFYFNKPTGYGSSSRRAPQTGIVDECCFASCDLRRLEMYCAPLKPAKSV"
parameter_measured = "pIC50"
observed = 7.79

[[record]]
binder = "IGF-1 L54A displayed on phage (ligand, not shown: large carriers; small tags and cut ends, ends and bridges not checked; also: displayed on M13 phage, fused to g3p fragment (249-406) via amber-codon residue, G1S-A70V background) SPETLCGAELVDALQFVCGDRGFYFNKPTGYGSSSRRAPQTGIVDECCFRSCDARRLEMYCAPLKPAKSV"
parameter_measured = "pIC50"
observed = 7.64

[[record]]
binder = "IGF-1 P2A displayed on phage (ligand, bacteriophage M13, range 249-406; G1S-A70V background) SAETLCGAELVDALQFVCGDRGFYFNKPTGYGSSSRRAPQTGIVDECCFRSCDLRRLEMYCAPLKPAKSVSGGGSGSGDFDYEKMANANKGAMTENADENALQSDAKGKLDSVATDYGAAIDGFIGDVSGLANGNGATGDFAGSNSQMAQVGDGDNSPLMNNFRQYLPSLPQSVECRPFVFSAGKPYEFSIDCDKINLFRGVFAFLLYVATFMYVFSTFANILRNKES"
parameter_measured = "pIC50"
observed = 7.96

[[record]]
binder = "IGF-1 R56A displayed on phage (ligand, not shown: large carriers; small tags and cut ends, not fully specified; ends and bridges not checked, G1S-A70V background) SPETLCGAELVDALQFVCGDRGFYFNKPTGYGSSSRRAPQTGIVDECCFRSCDLRALEMYCAPLKPAKSV"
parameter_measured = "pIC50"
observed = 7.88

[[record]]
binder = "IGF-1 E46A displayed on phage (ligand, not shown: large carriers; small tags and cut ends, G1S-A70V background) SPETLCGAELVDALQFVCGDRGFYFNKPTGYGSSSRRAPQTGIVDACCFRSCDLRRLEMYCAPLKPAKSV"
parameter_measured = "pIC50"
observed = 8.10

[[record]]
binder = "IGF-1 G42A displayed on phage (ligand, not shown: large carriers; small tags and cut ends, G1S-A70V background) SPETLCGAELVDALQFVCGDRGFYFNKPTGYGSSSRRAPQTAIVDECCFRSCDLRRLEMYCAPLKPAKSV"
parameter_measured = "pIC50"
observed = 7.80

[[record]]
binder = "Ala(1-3)-IGF-1 displayed on phage (ligand, bacteriophage M13, range 249-406) AAATLCGAELVDALQFVCGDRGFYFNKPTGYGSSSRRAPQTGIVDECCFRSCDLRRLEMYCAPLKPAKSVSGGGSGSGDFDYEKMANANKGAMTENADENALQSDAKGKLDSVATDYGAAIDGFIGDVSGLANGNGATGDFAGSNSQMAQVGDGDNSPLMNNFRQYLPSLPQSVECRPFVFSAGKPYEFSIDCDKINLFRGVFAFLLYVATFMYVFSTFANILRNKES"
parameter_measured = "pIC50"
observed = 7.04

